target: T1, biotinylated Aβ1-40 peptide (biotinylated (N-biotinylated in Example 7)); assay: SPR, Fab over Aβ1-40 on SA chip; KD=koff/kon
T1 construct: captured on streptavidin (SA) chip; also called Biotinylated Aβ peptide 1-40; Aβ1-40 on SA chip
T1 sequence (peptide, as listed by the source): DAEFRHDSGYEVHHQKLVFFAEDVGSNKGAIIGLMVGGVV
pKd: −log10 of the molar value.
Below, each of the binders is paired with its reported pKd value.

>  <Binder>
9TL variant W8 Fab (Fab, V domains shown, Fab; human IgG2 CH1 and kappa CL) VH: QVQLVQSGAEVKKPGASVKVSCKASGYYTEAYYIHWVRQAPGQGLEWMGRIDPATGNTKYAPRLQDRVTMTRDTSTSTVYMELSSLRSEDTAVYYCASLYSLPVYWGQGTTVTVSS VL: DVVMTQSPLSLPVTLGQPASISCKSSQSLLHSDSATYLNWFQQRPGQSPRRLIYQISRLDPGVPDRFSGSGSGTDFTLKISRVEAEDVGVYYCLQGTHYPVTFGQGTRLEIKR

>  <pKd>
7.92

$$$$
>  <Binder>
9TL variant M30 Fab (Fab, V domains shown, Fab; human IgG2 CH1 and kappa CL) VH: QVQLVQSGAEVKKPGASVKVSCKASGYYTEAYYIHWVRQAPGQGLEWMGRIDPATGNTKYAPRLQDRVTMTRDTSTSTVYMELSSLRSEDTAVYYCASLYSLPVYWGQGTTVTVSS VL: DVVMTQSPLSLPVTLGQPASISCKSSQSLLYSDAKTYLNWFQQRPGQSPRRLIYQISRLDPGVPDRFSGSGSGTDFTLKISRVEAEDVGVYYCLQGTHYPVVFGQGTRLEIKR

>  <pKd>
8.67

$$$$
>  <Binder>
9TL variant M43 Fab (Fab, V domains shown, Fab; human IgG2 CH1 and kappa CL) VH: QVQLVQSGAEVKKPGASVKVSCKASGYYTEAYYIHWVRQAPGQGLEWMGRIDPATGNTKYAPRLQDRVTMTRDTSTSTVYMELSSLRSEDTAVYYCASLYSLPIYWGQGTTVTVSS VL: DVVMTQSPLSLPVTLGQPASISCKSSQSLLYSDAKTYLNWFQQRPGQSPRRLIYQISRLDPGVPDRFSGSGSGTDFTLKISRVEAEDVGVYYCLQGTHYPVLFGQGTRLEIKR

>  <pKd>
9.03

$$$$
